Can you tell me Kb for the items I'm about to list?
target: NK1 receptor (Cavia porcellus)
Construct: from tissue; host or cells: isolated guinea pig ileum
Sequence (P30547 whole entry): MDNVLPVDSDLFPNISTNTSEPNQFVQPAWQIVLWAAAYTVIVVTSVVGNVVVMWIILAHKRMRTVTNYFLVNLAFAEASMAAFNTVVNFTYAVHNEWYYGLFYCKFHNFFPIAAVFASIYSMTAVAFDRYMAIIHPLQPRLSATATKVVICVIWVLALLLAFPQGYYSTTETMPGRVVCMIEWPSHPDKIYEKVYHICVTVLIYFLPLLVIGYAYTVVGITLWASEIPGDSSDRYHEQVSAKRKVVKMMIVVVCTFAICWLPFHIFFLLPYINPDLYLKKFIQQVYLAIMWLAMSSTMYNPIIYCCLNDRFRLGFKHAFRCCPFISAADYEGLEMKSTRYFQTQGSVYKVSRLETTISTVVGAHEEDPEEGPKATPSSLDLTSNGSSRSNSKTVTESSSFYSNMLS
assay: Test for NK1 receptor antagonist: substance P concentration-response in isolated guinea pig ileum, Schild analysis
Type: cell-based
test conditions: substance P as agonist, 10 min pretreatment, method of Schild
Return type: number; implicit unit nM.

Q: Using the record for `Cc1ccc(-c2c3n(c(=O)c4ncccc24)CC[C@@H](C)CN(Cc2cc(C(F)(F)F)cc(C(F)(F)F)c2)C3=O)cc1` , state its measured Kb.
Result: 0.269

Q: Using the record for `CC(=O)N1CCN(c2cc(-c3ccccc3C)c3c(n2)OCCCN(Cc2cc(C(F)(F)F)cc(C(F)(F)F)c2)C3=O)CC1` , state its measured Kb.
Result: 0.0888

Q: Using the record for `CC(=O)N1CCN(c2cc(-c3ccc(F)cc3)c3c(n2)OCCCN(Cc2cc(C(F)(F)F)cc(C(F)(F)F)c2)C3=O)CC1` , state its measured Kb.
Result: 0.0847

Q: Using the record for `CC(=O)N1CCCN(c2cc(-c3ccccc3C)c3c(n2)OCCCN(Cc2cc(C(F)(F)F)cc(C(F)(F)F)c2)C3=O)CC1` , state its measured Kb.
Result: 0.294

Hello, the source for this data is patent US7026309B2, in case you need it.
